Tested on: Candida albicans
assay.details: Antimicrobial activity against Candida albicans after 48 hrs by serial two-fold microbroth dilution method
Format: functional
recorded.metric: MIC (µg/mL)

Solved cases below.
| molecule.smiles | display.unit | quantitative.readout |
| --- | --- | --- |
| CC1(C)[C@H]2Cc3c(nc(N)c(C#N)c3-c3ccc(F)cc3)[C@@H]1C2 | µg/mL | 62.5 |
| CC1(C)[C@H]2Cc3c(nc(O)c(C#N)c3-c3cccc(Br)c3)[C@@H]1C2 | µg/mL | 31.3 |

I. COc1cccc(-c2c(C#N)c(O)nc3c2C[C@H]2C[C@@H]3C2(C)C)c1
II. CO[C@H]1/C=C/O[C@@]2(C)Oc3c(C)c(O)c4c(O)c(c(/C=N/N5CCN(C)CC5)c(O)c4c3C2=O)NC(=O)/C(C)=C\C=C\[C@H](C)[C@H](O)[C@@H](C)[C@@H](O)[C@@H](C)[C@H](OC(C)=O)[C@@H]1C
Larger number for MIC: I , or II ? Answer with the label corresponding to your selection.
I

----------
Test system: Candida albicans
assay.details: Antimicrobial activity against Candida albicans after 48 hrs by serial two-fold microbroth dilution method
Type: functional
recorded.metric: MIC (µg/mL)

Solved cases below.
| molecule.smiles | tested.on | display.unit | MIC |
| --- | --- | --- | --- |
| COc1ccc(-c2c(C#N)c(N)nc3c2C[C@H]2C[C@@H]3C2(C)C)cc1OC | Candida albicans | µg/mL | 62.5 |
| CC1(C)[C@H]2Cc3c(nc(O)c(C#N)c3-c3ccccc3)[C@@H]1C2 | Candida albicans | µg/mL | 125 |
| CC1(C)[C@H]2Cc3c(nc(O)c(C#N)c3-c3ccc(Cl)cc3Cl)[C@@H]1C2 | Candida albicans | µg/mL | 62.5 |
| CC1(C)[C@H]2Cc3c(nc(N)c(C#N)c3-c3ccc(F)c(F)c3)[C@@H]1C2 | Candida albicans | µg/mL | 31.3 |

I. CC1(C)[C@H]2Cc3c(nc(O)c(C#N)c3-c3ccc(C(F)(F)F)cc3)[C@@H]1C2
II. CC1(C)[C@H]2Cc3c(nc(O)c(C#N)c3-c3ccc(F)cc3)[C@@H]1C2
III. CC1(C)[C@H]2Cc3c(nc(N)c(C#N)c3-c3ccc(Br)cc3)[C@@H]1C2
IV. CC1(C)[C@H]2Cc3c(nc(O)c(C#N)c3-c3ccc(F)c(F)c3)[C@@H]1C2
Output the entries ranked by MIC from maximum down to minimum. Submit the labels in the order that the ranking request calls for.
I, III, II, IV

1. CC1(C)[C@H]2Cc3c(nc(O)c(C#N)c3-c3ccccc3Cl)[C@@H]1C2
2. CC1(C)[C@H]2Cc3c(nc(O)c(C#N)c3-c3cccc(O)c3)[C@@H]1C2
Larger number for MIC: 1 , or 2 ? Answer with the label corresponding to your selection.
1
(1: 125 µg/mL, 2: 62.5 µg/mL)

I. CC1(C)[C@H]2Cc3c(nc(N)c(C#N)c3-c3ccccc3)[C@@H]1C2
II. CC1(C)[C@H]2Cc3c(nc(O)c(C#N)c3-c3ccc(Br)cc3)[C@@H]1C2
Larger number for MIC: I , or II ? Answer with the label corresponding to your selection.
I
(I: 125 µg/mL, II: 31.3 µg/mL)

----------
Tested on: Candida albicans
assay.details: Antimicrobial activity against Candida albicans after 48 hrs by serial two-fold microbroth dilution method
Assay type: functional
recorded.metric: MIC (µg/mL)

| molecule.smiles | MIC (µg/mL) |
| --- | --- |
| Cc1ccc(-c2c(C#N)c(N)nc3c2C[C@H]2C[C@@H]3C2(C)C)cc1 | 125 |
| CC1(C)[C@H]2Cc3c(nc(N)c(C#N)c3-c3ccc(Cl)cc3)[C@@H]1C2 | 62.5 |

I. CC1(C)[C@H]2Cc3c(nc(N)c(C#N)c3-c3cccc(O)c3)[C@@H]1C2
II. CC1(C)[C@H]2Cc3c(nc(O)c(C#N)c3-c3ccc(Cl)cc3)[C@@H]1C2
III. COc1ccccc1-c1c(C#N)c(O)nc2c1C[C@H]1C[C@@H]2C1(C)C
Put the compounds in ascending order of MIC. Submit the labels in the order that the ranking request calls for.
II, III, I
